Molecular target: Ybr033w (UniProt P38073)
Sequence: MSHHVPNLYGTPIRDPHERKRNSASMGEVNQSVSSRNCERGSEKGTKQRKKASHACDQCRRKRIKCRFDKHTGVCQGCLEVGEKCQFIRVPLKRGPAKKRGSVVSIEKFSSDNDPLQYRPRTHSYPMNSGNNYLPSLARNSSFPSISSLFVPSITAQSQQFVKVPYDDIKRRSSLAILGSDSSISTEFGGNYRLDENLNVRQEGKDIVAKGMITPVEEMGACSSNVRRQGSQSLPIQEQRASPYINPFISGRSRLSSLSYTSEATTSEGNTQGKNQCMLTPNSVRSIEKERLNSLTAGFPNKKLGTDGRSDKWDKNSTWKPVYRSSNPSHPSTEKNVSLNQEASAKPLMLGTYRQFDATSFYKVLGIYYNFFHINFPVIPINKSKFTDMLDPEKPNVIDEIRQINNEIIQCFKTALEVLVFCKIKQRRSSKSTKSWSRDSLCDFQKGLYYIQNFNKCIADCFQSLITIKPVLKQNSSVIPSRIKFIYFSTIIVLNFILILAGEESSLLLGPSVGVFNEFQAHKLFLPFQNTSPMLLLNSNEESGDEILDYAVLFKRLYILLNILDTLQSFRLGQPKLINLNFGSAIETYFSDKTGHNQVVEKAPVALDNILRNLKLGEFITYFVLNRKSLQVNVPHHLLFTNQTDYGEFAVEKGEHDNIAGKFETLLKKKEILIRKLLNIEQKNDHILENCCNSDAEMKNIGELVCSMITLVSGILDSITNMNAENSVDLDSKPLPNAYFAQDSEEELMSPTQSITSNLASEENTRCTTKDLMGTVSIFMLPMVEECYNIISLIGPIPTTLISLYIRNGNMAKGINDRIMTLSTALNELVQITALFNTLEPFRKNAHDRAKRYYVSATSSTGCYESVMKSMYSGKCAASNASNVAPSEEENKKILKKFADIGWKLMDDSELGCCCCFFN
Assay: PBM E-score (8-mer binding enrichment) (E-score (-0.5 to 0.5)); higher = stronger / more preferred TF binding
Settings: protein concentration: 200 nM; construct: GST-full length
Over roughly 33,000 sequences, “E-score (-0.5 to 0.5)” has its median near -0.012; the highest 2% begin near 0.29. The list comes from a sample in which the highest values are over-represented; it also holds close analogues and randomly drawn sequences.
Could you please report measured PBM E-score for the items listed next?
Answers are plain numbers.

Use the examples below as a reference point.
{"construct-sequence": "ACAAATTA", "experimental-system": "Ybr033w (UniProt P38073)", "PBM E-score": 0.328}
{"construct-sequence": "TAATATGA", "experimental-system": "Ybr033w (UniProt P38073)", "PBM E-score": 0.284}
{"construct-sequence": "ACAAATTG", "experimental-system": "Ybr033w (UniProt P38073)", "PBM E-score": 0.0817}
{"construct-sequence": "AAATATCT", "experimental-system": "Ybr033w (UniProt P38073)", "PBM E-score": 0.295}
{"construct-sequence": "AACAACTT", "experimental-system": "Ybr033w (UniProt P38073)", "PBM E-score": 0.291}
{"construct-sequence": "AACAAACC", "experimental-system": "Ybr033w (UniProt P38073)", "PBM E-score": 0.105}
{"construct-sequence": "ATTAACAG", "experimental-system": "Ybr033w (UniProt P38073)", "PBM E-score": 0.0928}
{"construct-sequence": "CCAATTTA", "experimental-system": "Ybr033w (UniProt P38073)", "PBM E-score": 0.203}

// each sequence listed below needs its PBM E-score
1. ACATTGCG
2. AACAAACG
3. AACAACTC
4. AACAAACT
5. AAGTATAA
6. AACAAACA

[reply]
0.0729
0.183
0.0616
0.341
0.152
0.193

// each sequence listed below needs its PBM E-score
1. CAATATAC
2. AATAACAC
3. AAAAATGA
4. AAATATCG

[reply]
[0.0977, 0.222, 0.233, 0.247]

// each sequence listed below needs its PBM E-score
1. AAAAATTA
2. AACAACTA
3. ACAATTTA
4. TACAAACA

[reply]
1. 0.302
2. 0.147
3. 0.225
4. 0.29
